Each entry below carries its reported IC50.
- test-target: Acetylcholinesterase (Musca domestica, UniProt Q7YWJ9)
- Sequence (Q7YWJ9 whole entry): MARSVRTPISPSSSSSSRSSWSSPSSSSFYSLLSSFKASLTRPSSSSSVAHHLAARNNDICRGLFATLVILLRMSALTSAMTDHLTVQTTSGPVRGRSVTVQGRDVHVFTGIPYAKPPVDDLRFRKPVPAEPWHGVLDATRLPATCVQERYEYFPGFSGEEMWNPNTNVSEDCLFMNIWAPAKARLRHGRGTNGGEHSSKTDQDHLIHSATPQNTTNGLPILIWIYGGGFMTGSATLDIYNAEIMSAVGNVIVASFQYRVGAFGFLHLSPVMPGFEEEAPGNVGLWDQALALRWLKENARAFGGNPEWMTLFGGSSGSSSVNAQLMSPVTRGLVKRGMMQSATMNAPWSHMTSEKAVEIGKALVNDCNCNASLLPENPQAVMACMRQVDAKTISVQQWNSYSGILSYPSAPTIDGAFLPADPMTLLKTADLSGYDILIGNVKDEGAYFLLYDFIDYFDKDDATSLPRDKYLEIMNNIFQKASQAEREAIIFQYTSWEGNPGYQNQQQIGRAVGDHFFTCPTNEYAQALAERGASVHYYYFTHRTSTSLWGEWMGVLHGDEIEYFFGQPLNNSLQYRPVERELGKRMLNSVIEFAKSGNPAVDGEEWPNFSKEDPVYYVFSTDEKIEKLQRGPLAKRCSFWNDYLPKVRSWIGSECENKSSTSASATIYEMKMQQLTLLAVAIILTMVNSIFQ
measurement-label: IC50 (µM)

- CC(C)CSc1cccc(OS(C)(=O)=O)n1: 1300
- CC(C)CSc1nc(OS(C)(=O)=O)cs1: 2200
- CC(C)CS(=O)(=O)c1ccnc(OS(C)(=O)=O)c1: 1.9

----------
- method: Lipophilicity, log K of the compound
- Assay type: physicochemical
- measurement-setup: octanol/water
Label true (1) when log K is at or above 0.3; otherwise label false (0).

* CC(C)CSc1cccc(OS(C)(=O)=O)c1 [3-(ISOBUTYLTHIO)PHENYL METHANESULFONATE] | true (1)
* CC(C)CSc1cc(OS(C)(=O)=O)ccn1 | true (1)
* CC(C)CSc1cccc(OS(C)(=O)=O)n1 | true (1)
* CC(C)CSc1cc(OS(C)(=O)=O)ncn1 | true (1)
* CC(C)CSc1nc(OS(C)(=O)=O)cs1 | true (1)
* CC(C)CSc1ccnc(OS(C)(=O)=O)c1 | true (1)
* CC(C)CSc1cncc(OS(C)(=O)=O)n1 | true (1)
* CC(C)CSc1cncc(OS(C)(=O)=O)c1 | false (0)
* CC(C)CSc1nccc(OS(C)(=O)=O)n1 | false (0)

----------
Each entry below carries its reported IC50.
- test-target: Acetylcholinesterase (Bos taurus)
- Sequence (P23795 whole entry): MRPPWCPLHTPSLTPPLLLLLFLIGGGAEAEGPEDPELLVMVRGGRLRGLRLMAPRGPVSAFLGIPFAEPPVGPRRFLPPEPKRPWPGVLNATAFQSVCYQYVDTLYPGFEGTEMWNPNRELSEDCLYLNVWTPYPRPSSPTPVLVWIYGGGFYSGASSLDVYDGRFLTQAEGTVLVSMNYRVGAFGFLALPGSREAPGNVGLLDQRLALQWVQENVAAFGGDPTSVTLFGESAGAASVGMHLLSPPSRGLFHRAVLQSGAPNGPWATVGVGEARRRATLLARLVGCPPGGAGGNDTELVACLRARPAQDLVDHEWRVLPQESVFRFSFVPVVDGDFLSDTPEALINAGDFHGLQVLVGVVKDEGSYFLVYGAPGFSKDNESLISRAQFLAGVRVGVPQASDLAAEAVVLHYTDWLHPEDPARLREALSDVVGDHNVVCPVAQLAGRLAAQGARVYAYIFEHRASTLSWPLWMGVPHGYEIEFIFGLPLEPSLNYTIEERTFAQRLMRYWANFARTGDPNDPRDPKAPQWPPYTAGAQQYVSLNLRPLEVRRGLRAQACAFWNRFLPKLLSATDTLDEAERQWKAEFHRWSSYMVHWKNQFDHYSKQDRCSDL
measurement-label: IC50 (µM)

• CCC(C)c1ccccc1OC(=O)NC (stereo not drawn) = 12
• CC(C)CS(=O)(=O)c1cccc(OS(C)(=O)=O)c1 = 1
• CC(C)CS(=O)(=O)c1nc(OS(C)(=O)=O)cs1 = 1.4
• CC(C)CSc1cccc(OS(C)(=O)=O)n1 = 2000
• CC(C)CSc1nc(OS(C)(=O)=O)cs1 = 31
• CC(C)CS(=O)(=O)c1ccnc(OS(C)(=O)=O)c1 = 0.8
• CC(C)C[S+]([O-])c1cccc(OS(C)(=O)=O)c1 (stereo not drawn) = 0.56
• CC(C)CS(=O)(=O)c1cccc(OS(C)(=O)=O)n1 = 0.9
